Target: Heat shock protein HSP 90-beta (Homo sapiens, UniProt P08238)
Sequence (P08238 whole entry): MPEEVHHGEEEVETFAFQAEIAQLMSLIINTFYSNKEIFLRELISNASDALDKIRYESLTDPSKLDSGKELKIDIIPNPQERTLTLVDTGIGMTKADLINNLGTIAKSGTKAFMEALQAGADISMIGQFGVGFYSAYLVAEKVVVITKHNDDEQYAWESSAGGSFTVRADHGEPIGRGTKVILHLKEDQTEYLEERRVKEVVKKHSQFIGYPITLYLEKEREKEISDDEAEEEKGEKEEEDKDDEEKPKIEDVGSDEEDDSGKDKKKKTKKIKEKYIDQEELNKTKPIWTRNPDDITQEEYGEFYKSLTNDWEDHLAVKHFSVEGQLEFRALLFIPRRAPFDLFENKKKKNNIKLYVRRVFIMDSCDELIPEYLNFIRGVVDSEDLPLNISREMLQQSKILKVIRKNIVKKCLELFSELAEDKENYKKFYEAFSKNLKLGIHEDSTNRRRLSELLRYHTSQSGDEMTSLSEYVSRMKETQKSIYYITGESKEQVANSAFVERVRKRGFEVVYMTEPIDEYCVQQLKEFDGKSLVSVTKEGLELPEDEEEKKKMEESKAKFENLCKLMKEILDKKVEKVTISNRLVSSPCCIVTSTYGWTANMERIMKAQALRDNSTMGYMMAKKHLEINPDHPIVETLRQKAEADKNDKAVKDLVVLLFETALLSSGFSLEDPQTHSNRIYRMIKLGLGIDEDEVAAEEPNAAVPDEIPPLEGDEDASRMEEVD
Assay: Inhibitory activity against Hsp90 in human breast cancer SKBr3 cell line
Type: cell-based
# reported pEC50; entries follow
The quantity pEC50 is defined as the negative base-10 logarithm of the molar concentration.

structure.notation	numeric.result
C#CCCCn1c(Cc2cc3c(cc2Br)OCO3)nc2c(N)nc(F)nc21	7.25

Query string: Query (compound): `C#CCCCn1c(Cc2cc3c(cc2Cl)OCO3)nc2c(N)nc(F)nc21` ; field requested: pEC50
Result string: 7.11

Query string: And then `C#CCCCn1c(Cc2cc(OC)c(OC)cc2Cl)nc2c(N)nc(F)nc21` , what is it?
Result string: 5.34

Query string: And then `C#CCCCn1c(Cc2cc3c(cc2I)OCO3)nc2c(N)nc(F)nc21` , what is it?
Result string: 7.65

Query string: And then `C#CCCCn1c(Sc2cc3c(cc2I)OCO3)nc2c(N)ncnc21` , what is it?
Result string: 7.97

Query string: And then `C#CCCCn1c(Sc2cc3c(cc2Br)OCO3)nc2c(N)ncnc21` , what is it?
Result string: 7.30

Query string: And then `CC(C)NCCCn1c(Cc2cc3c(cc2I)OCO3)nc2c(N)nc(F)nc21` , what is it?
Result string: 7.30
